assayTarget: cloned human δ receptors (Homo sapiens, UniProt P41143)
Construct: expressed in transfected cells
Sequence (P41143 whole entry): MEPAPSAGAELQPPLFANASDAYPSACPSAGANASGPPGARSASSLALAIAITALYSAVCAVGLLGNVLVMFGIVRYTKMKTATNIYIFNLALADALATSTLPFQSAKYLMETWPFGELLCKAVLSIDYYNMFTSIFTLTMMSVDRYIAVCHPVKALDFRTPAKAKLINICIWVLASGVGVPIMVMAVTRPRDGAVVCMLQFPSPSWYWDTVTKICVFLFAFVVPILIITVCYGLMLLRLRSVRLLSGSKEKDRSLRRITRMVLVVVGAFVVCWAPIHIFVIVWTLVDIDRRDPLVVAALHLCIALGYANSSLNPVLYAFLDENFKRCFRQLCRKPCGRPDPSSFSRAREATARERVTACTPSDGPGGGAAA
assayComment: Binding assay, displacement of 125I-Deltorphin II (IC50hd)
Exercise: for every item that follows, state its recorded IC50.
Report the value in nM with no unit label.

Query: So what does the record say about IC50 for `CCN(CC)C(=O)c1ccc([C@H](c2cccc(N)c2)N2CCN(Cc3cccc(F)c3)CC2)cc1` ?
Response: 1.08

Query: So what does the record say about IC50 for `CCN(CC)C(=O)c1ccc([C@H](c2cccc(N)c2)N2CCN(Cc3ccccc3F)CC2)cc1` ?
Response: 0.717

---

assayTarget: human δ receptors (Homo sapiens, UniProt P41143)
Construct: expressed in transfected cells
Sequence (P41143 whole entry): as above
assayComment: Human δ receptor functional assay, GTP[γ]35S binding
Assay type: biochemical
conditionLabel: human δ receptors expressed at lower levels; read-out: EC50h (low)
propertyName: pEC50
Lab note — pEC50 values are minus log10 of concentrations in M.

Query: So what does the record say about pEC50 for `CCN(CC)C(=O)c1ccc([C@H](c2cccc(N)c2)N2CCN(Cc3ccc(F)cc3)CC2)cc1` ?
Response: 7.69
